# Target Or Test System: HDM2 (Homo sapiens, UniProt Q00987)
# Construct: Thioredoxin (N); made in house; host or cells: E. coli strain BL21(DE3)Rosetta
# Sequence (Q00987 17-125): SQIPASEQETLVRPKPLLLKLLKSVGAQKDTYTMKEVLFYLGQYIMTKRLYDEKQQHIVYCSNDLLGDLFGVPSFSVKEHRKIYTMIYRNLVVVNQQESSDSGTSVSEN
# Test Method Notes: FRET assay (HDM2 inhibition; method not described in this part)
# Type: binding
# Test Parameters: Table 2
Parameter Measured: pIC50
pIC50 is a log-scale quantity: -log10 of the concentration expressed in molar.

Input: Can you share its pIC50? I mean this molecule: `C[C@@H](Nc1nc(C(=O)O)nc2nc(-c3cnn(C)c3)n(Cc3ccc(C(F)(F)F)cc3)c12)C1CCC1`
Output: 6.72

Input: Can you share its pIC50? I mean this molecule: `C[C@@H](Nc1nc(C(=O)O)nc2nc(-c3ccc(C#N)cc3)n(Cc3ccc(C(F)(F)F)cc3)c12)C1CC1`
Output: 6.36

Input: Can you share its pIC50? I mean this molecule: `C[C@@H](Nc1nc(C(=O)O)nc2nc(-c3cccc(OC(F)(F)F)c3)n(Cc3ccc(C(F)(F)F)cc3)c12)C1CC1`
Output: 6.26

Input: Can you share its pIC50? I mean this molecule: `COc1cc(OC)cc(-c2nc3nc(C(=O)O)nc(N[C@H](C)C4CC4)c3n2Cc2ccc(C(F)(F)F)cc2)c1`
Output: 6.34

Where these numbers come from: patent EP2951180B1
